Test system: SR leukemia
Test: NCI tumour cell line growth inhibition, 48 h
For each record, write down the corresponding TGI.

-- ask Consider the compound Cc1ccccc1N(CCC#N)C1=NN(C(=O)CC(=O)Nc2ccc(Cl)cc2)C(c2ccccc2)C1 (stereo not drawn) and give its measured TGI.
-- reply > 100 µM

-- ask Next compound up: CC1(C)CC(=O)c2c(-c3ccc(Cl)cc3)c(C#N)c(=S)n(C3OC(CO)C(O)C(O)C3O)c2C1 (stereo not drawn)
-- reply > 100 µM

-- ask Next compound up: N#Cc1c(-c2ccccc2)cn(C(=O)c2ccccc2)c1N
-- reply > 100 µM

-- ask Next compound up: Cc1[nH]c(=O)n2c(C)nnc2c1C(=O)O
-- reply > 100 µM

-- ask Next compound up: CCOC(=O)c1sc2nc(SC)nc3c2c1NC(=O)CN3c1ccc(F)cc1
-- reply > 100 µM

-- ask Next compound up: CC[C@]12C=CCN3CC[C@@]4(c5ccc(OC)cc5N(C)[C@H]4[C@@](O)(C(=O)OC)[C@@H]1OC(=O)CCC(=O)O[C@H]1CC[C@H]4[C@@H]5CCC6=CC(=O)CC[C@@H]6[C@H]5CC[C@]14C)[C@@H]32
-- reply > 50 µM

-- ask Next compound up: COc1cc(-c2oc3c(OC)c(O)c(OC)c(O)c3c(=O)c2OC)cc(OC)c1OC
-- reply > 100 µM

-- ask Next compound up: COc1cccc(C(=O)NNc2nc(Cl)nc(N3CCN(C(c4ccccc4)c4ccccc4)CC3)n2)c1
-- reply 4.26 µM
